- System: TTR
- assay: TTR editing in HUH7 cells transfected with Spy Cas9 mRNA and dgRNAs (Table 5)
- Type: cell-based, human
- measurement_conditions: HUH7 cells co-transfected with Spy Cas9 mRNA (SEQ ID NO:2) and dgRNAs
Provide the recorded Avg % Insert for the entries that follow.
Write it as a number; the unit % goes unstated.

Lab note: measured Avg % Insert of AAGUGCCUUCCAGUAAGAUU (tested as dual guide RNA, chemistry not given here) [CR003368] was 3.08

Entry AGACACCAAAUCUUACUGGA (tested as dual guide RNA, chemistry not given here) [CR003367] — recorded Avg % Insert = 33.62

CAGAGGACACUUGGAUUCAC (tested as dual guide RNA, chemistry not given here) [CR003343] yielded Avg % Insert of 9.58

Avg % Insert recorded for this sequence, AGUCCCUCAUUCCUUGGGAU (tested as dual guide RNA, chemistry not given here) [CR003392] , is 1.93

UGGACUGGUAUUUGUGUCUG (tested as dual guide RNA, chemistry not given here) [CR003340] has a reported Avg % Insert of 33.33

The sequence identified as ACCUGGGAGCCAUUUGCCUC (tested as dual guide RNA, chemistry not given here) [CR003354] registered its Avg % Insert at 1.25

The recorded Avg % Insert for UGCACGGCCACAUUGAUGGC (tested as dual guide RNA, chemistry not given here) [CR003349] is 9.73

Documented Avg % Insert of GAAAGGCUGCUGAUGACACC (tested as dual guide RNA, chemistry not given here) [CR003352] : 7.62

Memo: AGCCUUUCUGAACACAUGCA (tested as dual guide RNA, chemistry not given here) [CR003351] , reported Avg % Insert: 36.87

Sample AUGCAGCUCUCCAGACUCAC (tested as dual guide RNA, chemistry not given here) [CR003358] ; Avg % Insert observed: 10.53

Sample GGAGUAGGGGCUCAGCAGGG (tested as dual guide RNA, chemistry not given here) [CR003382] ; Avg % Insert observed: 0.14

Form: sequence = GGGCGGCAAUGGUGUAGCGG (tested as dual guide RNA, chemistry not given here) [CR003379] ; Avg % Insert = 3.38

Data point: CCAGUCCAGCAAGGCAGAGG (tested as dual guide RNA, chemistry not given here) [CR003337] ; Avg % Insert = 8.34

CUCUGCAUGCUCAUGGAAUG (tested as dual guide RNA, chemistry not given here) [CR003369] yielded Avg % Insert of 7.12

----------
I'd be grateful if you could share measured Avg % Deletion for these entries.
- System: TTR
- assay: TTR editing in HepG2 cells transfected with Spy Cas9 mRNA and dgRNAs (Table 6)
- Format: cell-based, human
- measurement_conditions: HepG2 cells co-transfected with Spy Cas9 mRNA (SEQ ID NO:2) and dgRNAs
Supply the numeric figure in %, leaving out any unit text.

// Avg % Deletion lookup, sequence = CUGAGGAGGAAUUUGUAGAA (tested as dual guide RNA, chemistry not given here) [CR003364] , result: 20.85

Data point: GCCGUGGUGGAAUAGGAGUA (tested as dual guide RNA, chemistry not given here) [CR003387] ; Avg % Deletion = 0.12

The recorded Avg % Deletion for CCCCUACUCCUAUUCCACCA (tested as dual guide RNA, chemistry not given here) [CR003385] is 7.62

Note to self: Avg % Deletion recorded for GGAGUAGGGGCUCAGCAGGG (tested as dual guide RNA, chemistry not given here) [CR003382] was 0.15

get_value(item= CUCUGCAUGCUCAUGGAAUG (tested as dual guide RNA, chemistry not given here) [CR003369] , readout=Avg % Deletion) returns 5.51

# sequence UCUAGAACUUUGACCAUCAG (tested as dual guide RNA, chemistry not given here) [CR003345] ; its Avg % Deletion = 4.45

Query UCACAGAAACACUCACCGUA (tested as dual guide RNA, chemistry not given here) [CR005300] yields Avg % Deletion of 11.15

----------
- Tested on: TTR
- assay: TTR editing in HepG2 cells transfected with Spy Cas9 mRNA and dgRNAs (Table 6)
- Assay type: cell-based, human
- measurement_conditions: HepG2 cells co-transfected with Spy Cas9 mRNA (SEQ ID NO:2) and dgRNAs
Note to self: use met only for Avg % Edit readings below 20%; a reading exactly at 20% still gets not met.

Strictly below 20% in Avg % Edit? GUAUUCACAGCCAACGACUC (tested as dual guide RNA, chemistry not given here) [CR003373]
met

Threshold test, Avg % Edit < 20%: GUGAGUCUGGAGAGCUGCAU (tested as dual guide RNA, chemistry not given here) [CR003360]
not met

Avg % Edit strictly < 20% for this sequence? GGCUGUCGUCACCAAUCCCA (tested as dual guide RNA, chemistry not given here) [CR003391]
not met

Input CACAUGCACGGCCACAUUGA (tested as dual guide RNA, chemistry not given here) [CR003350] ; condition: Avg % Edit strictly below 20%. Does it hold?
not met

In plain terms, does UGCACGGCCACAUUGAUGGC (tested as dual guide RNA, chemistry not given here) [CR003349] come in under 20% for Avg % Edit?
met

Given the entry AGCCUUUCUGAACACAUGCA (tested as dual guide RNA, chemistry not given here) [CR003351] , would its reported Avg % Edit be below 20%?
not met

Hi there! Is Avg % Edit for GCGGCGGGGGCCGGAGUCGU (tested as dual guide RNA, chemistry not given here) [CR003374] below 20%, do you know?
met
